Taken from patent US7407939.

Measured % Inhibition PKA of individual entries
# Experimental system: protein kinase A, catalytic subunit
# Protocol: cell-based or functional assay
Where no end group is shown, it is not given here. [ ]: non-standard residue; d: D form. hLeu = CC(C)CC[C@H](N)C(=O)O; Nva = CCC[C@H](N)C(=O)O; Abu = CC[C@H](N)C(=O)O; Dap = NC[C@H](N)C(=O)O; GlyNH2 = aminoglycine
Note: unit % is implicit; provide only the numeric part.

Binder | Unit string | % Inhibition PKA
RPR[Nva]S[GlyNH2][hLeu] [60005-75] | % | -4

Prompt line: // lookup % Inhibition PKA for RPR[Nva]TA[hLeu] [60005-84]
Response line: 7

Prompt line: Item: RPR[Nva]GA[hLeu] [60006-18A]
Response line: 11

Prompt line: Now the binder RPRT[GlyNH2]A[hLeu] [60005-32]
Response line: 4

Prompt line: RPR[Nva]SAF [60002-38] ?
Response line: -2

Prompt line: Next up: RPRT[Abu][Dap]F [60002-88]
Response line: -3
